All figures here come from patent US20210246166A1.

biological target: Recombinant human MASP2 enzyme (fragment corresponding to amino acids 297-686, C-terminal His Tag) (human, UniProt O00187 297-686); assay: cell-based or functional assay
Sequence (O00187 other isoform, or with tags, fused parts or gaps limits assumed): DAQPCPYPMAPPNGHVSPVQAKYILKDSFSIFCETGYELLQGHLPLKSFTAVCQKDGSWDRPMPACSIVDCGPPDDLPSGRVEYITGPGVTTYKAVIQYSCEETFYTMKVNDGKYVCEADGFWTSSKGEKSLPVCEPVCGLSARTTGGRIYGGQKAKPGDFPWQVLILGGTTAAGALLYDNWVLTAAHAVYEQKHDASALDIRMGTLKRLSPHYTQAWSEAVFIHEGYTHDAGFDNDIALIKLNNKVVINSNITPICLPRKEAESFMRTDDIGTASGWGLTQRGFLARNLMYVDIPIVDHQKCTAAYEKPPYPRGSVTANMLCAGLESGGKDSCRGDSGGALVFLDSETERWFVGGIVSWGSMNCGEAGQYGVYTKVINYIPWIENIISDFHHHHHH
Bridge positions count the residues as written; N and C are the ends. Square brackets hold non-standard residues; d marks the D form. Ends that are not written are not given here. Oic = O=C(O)[C@@H]1C[C@@H]2CCCC[C@@H]2N1; Chg = N[C@H](C(=O)O)C1CCCCC1; Pen = CC(C)(S)[C@H](N)C(=O)O; NMeC = CN[C@@H](CS)C(=O)O; NMeA = CN[C@@H](C)C(=O)O; Sar = CNCC(=O)O
Entries and their human MASP2 IC50 values follow.
Numeric only. Scale: nM

INSERT INTO assay_data (binder, result_unit, numeric_readout) VALUES
  ('[dA]ICSRSLP[Oic]I[Pen]IPQ-OH (disulfide 3-11; N-terminus assumed; SMILES CC[C@H](C)[C@H](NC(=O)[C@@H](C)N)C(=O)N[C@H]1CSSC(C)(C)[C@@H](C(=O)N[C@H](C(=O)N2CCC[C@H]2C(=O)N[C@@H](CCC(N)=O)C(=O)O)[C@@H](C)CC)NC(=O)[C@H]([C@@H](C)CC)NC(=O)[C@@H]2C[C@@H]3CCCC[C@@H]3N2C(=O)[C@@H]2CCCN2C(=O)[C@H](CC(C)C)NC(=O)[C@H](CO)NC(=O)[C@H](CCCNC(=N)N)NC(=O)[C@H](CO)NC1=O) [aIC+SRSLP-(Oic)-I-(Pen)+IPQ-OH]', 'nM', 140),
  ('[NMeA]ICSRSLP[Oic]I[Pen]IPQ-OH (disulfide 3-11; N-terminus assumed; SMILES CC[C@H](C)[C@H](NC(=O)[C@H](C)NC)C(=O)N[C@H]1CSSC(C)(C)[C@@H](C(=O)N[C@H](C(=O)N2CCC[C@H]2C(=O)N[C@@H](CCC(N)=O)C(=O)O)[C@@H](C)CC)NC(=O)[C@H]([C@@H](C)CC)NC(=O)[C@@H]2C[C@@H]3CCCC[C@@H]3N2C(=O)[C@@H]2CCCN2C(=O)[C@H](CC(C)C)NC(=O)[C@H](CO)NC(=O)[C@H](CCCNC(=N)N)NC(=O)[C@H](CO)NC1=O) [((N-Me)A)-IC+SRSLP-(Oic)-I-(Pen)+IPQ-OH]', 'nM', 170),
  ('[Sar]ICSRSLP[Oic]I[Pen]IP-NH2 (disulfide 3-11; also: tartrate salt) [((N-Me)G)-IC+SRSLP-(Oic)-I-(Pen)+IP-NH2 (Tartrate)]', 'nM', 35),
  ('AICSRSLP[Oic]I[NMeC]I-NH2 (disulfide 3-11; N-terminus assumed; SMILES CC[C@H](C)[C@H](NC(=O)[C@@H]1CSSC[C@H](NC(=O)[C@@H](NC(=O)[C@H](C)N)[C@@H](C)CC)C(=O)N[C@@H](CO)C(=O)N[C@@H](CCCNC(=N)N)C(=O)N[C@@H](CO)C(=O)N[C@@H](CC(C)C)C(=O)N2CCC[C@H]2C(=O)N2[C@@H](C[C@@H]3CCCC[C@@H]32)C(=O)N[C@@H]([C@@H](C)CC)C(=O)N1C)C(N)=O) [AIC+SRSLP-(Oic)-I-((N-Me)C)+I-NH2]', 'nM', 170);

// below: human MASP2 IC50 requested for another binder
Measured human MASP2 IC50 of AICSRSLPP[Chg]CI-NH2 (disulfide 3-11; N-terminus assumed; SMILES CC[C@H](C)[C@H](NC(=O)[C@@H]1CSSC[C@H](NC(=O)[C@@H](NC(=O)[C@H](C)N)[C@@H](C)CC)C(=O)N[C@@H](CO)C(=O)N[C@@H](CCCNC(=N)N)C(=O)N[C@@H](CO)C(=O)N[C@@H](CC(C)C)C(=O)N2CCC[C@H]2C(=O)N2CCC[C@H]2C(=O)N[C@@H](C2CCCCC2)C(=O)N1)C(N)=O) [AIC+SRSLPP-(Chg)-C+I-NH2] : 92
